# experiment description: Stability in simplified simulated gastric fluid assessed as parent compound remaining at 24 hrs
# Format: ADME
# condition context: read-out: Stability
result type: remaining at 24 h (%)
State just the number; it will be interpreted in %.

Please list remaining at 24 h recorded for the compound N#C/C(=C\c1cccc2cnccc12)c1cn(C(=O)C2CCNCC2)c2ccccc12 75

Tell me its remaining at 24 h given CN1CCN(CC(=O)n2cc(/C(C#N)=C/c3cccc4cnccc34)c3ccccc32)CC1 as the entry. 50

====

# System: BJ
# experiment description: Induction of autophagy in transformed human BJ cells assessed as increase in LC3-2 to LC3-1 ratio at 5 uM after 24 hrs by Western blot analysis relative to control
# Assay type: functional
result type: fold change (FC)
Give only the figure.

Give the reported value of fold change (FC) for this record: N#C/C(=C\c1cccc2cnccc12)c1cn(C(=O)CCN)c2ccccc12 4.1

Supply reported fold change (FC) belonging to this compound: COCCOCC(=O)n1cc(/C(C#N)=C/c2cccc3cnccc23)c2ccccc21 4.1

Assign fold change (FC) to the following record: CS(=O)(=O)n1cc(/C(C#N)=C/c2cccc3cnccc23)c2ccccc21 0.8
